Source listed as patent US12534531.

Target: T1, soluble human PD-1 (the extracellular domain of human PD-1 fused to a His tag) (human, UniProt Q15116 25-170)
T1 construct: also called shPD-1 His; shPD-1-His; not shown: His tag
T1 sequence (Q15116 25-170): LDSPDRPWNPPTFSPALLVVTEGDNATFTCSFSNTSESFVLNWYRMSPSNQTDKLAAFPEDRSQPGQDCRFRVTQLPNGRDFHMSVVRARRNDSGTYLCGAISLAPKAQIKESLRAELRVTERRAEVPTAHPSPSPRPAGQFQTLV
Test: ELISA: shPD-1 His coated at 1 ug/ml, goat anti-mouse (H+L)-HRP, RLU
propertyLabel: EC50 (read off the curve)

Data request: What value of measured EC50 (read off the curve) is listed for PD-1 mAb 1 (antibody, V domains shown, Murine monoclonal antibody) VH: DVQLQESGPGRVKPSQSLSLTCTVTGFSITNDYAWNWIRQFPGNKLEWMGHITYSGSTSYNPSLKSRISITRDTSKNHFFLQLSSVTPEDTATYYCARDYGSGYPYTLDYWGQGTSVTVSS VL: QIVLTQSPALMSASPGEKVTMTCSATSIVSYVYWYQQKPGSSPQPWIYLTSNLASGVPARFSGSGSGTSYSLTISSMEAEDAATYYCQQWSDNPYTFGGGTKLEIK ?
Data returned: ~0.3 nM
